# tgt: Syk (Homo sapiens, UniProt P43405)
# assay overview: Direct binding to Syk by fluorescence spectroscopy
# experimental conditions: Table S1
pKd: −log10 of the molar value.

[
  {
    "compound": "COc1ccc(S(=O)(=O)N(CCc2ccccc2)CC(=O)Nc2ccc(C(N)=O)cc2)cc1",
    "pKd": 6.10
  },
  {
    "compound": "CCOc1ccc(NC(=O)CC2C(=O)N(c3ccc(OC)cc3)C(=S)N2CCN2CCOCC2)cc1 (stereo not shown)",
    "pKd": 4.81
  },
  {
    "compound": "CCOC(=O)c1ccc(NC(=O)CC2C(=O)N(c3ccc(Cl)cc3)C(=S)N2Cc2cccnc2)cc1 (stereo not shown)",
    "pKd": 4.66
  },
  {
    "compound": "COc1cccc(C2C(=C(O)c3ccc(C)cc3)C(=O)C(=O)N2CCCN2CCOCC2)c1 (stereo not shown)",
    "pKd": 5.03
  }
]

* * *

# tgt: Syk (Homo sapiens, UniProt P43405)
# assay overview: Direct binding to Syk by fluorescence spectroscopy
# experimental conditions: Table 1
Measured Kd, listed per entry.
attribute measured: Kd (µM)

[
  {
    "molecule": "COC(=O)c1ccccc1-c1ccc(C=C2SC(=S)N(Cc3ccccc3)C2=O)o1 [C-13, reference compound]",
    "attribute measured": "Kd",
    "unit string": "µM",
    "result number": 4
  },
  {
    "molecule": "C=CCn1c(CNC(=O)c2cccc(C)c2)nnc1SCC(=O)Nc1cccc(C(=O)OC(C)C)c1",
    "attribute measured": "Kd",
    "unit string": "µM",
    "result number": 4.8
  },
  {
    "molecule": "COc1ccccc1C(=O)Nc1ccc(-c2nnc(SCC(=O)c3ccccc3)n2C)cc1",
    "attribute measured": "Kd",
    "unit string": "µM",
    "result number": 5.6
  },
  {
    "molecule": "CCOC(=O)c1ccc(NC(=O)CSc2nnc(-c3ccco3)c(-c3ccco3)n2)cc1",
    "attribute measured": "Kd",
    "unit string": "µM",
    "result number": 1.6
  },
  {
    "molecule": "COc1cc(-c2nnc(SCC(=O)Nc3ccc(Cl)cc3)n2CCc2ccccc2)cc(OC)c1OC",
    "attribute measured": "Kd",
    "unit string": "µM",
    "result number": 8.2
  },
  {
    "molecule": "C=CCn1c(SCC(=O)Nc2cccc(OC)c2)nnc1C(C)NC(=O)c1ccccc1 (stereo not drawn)",
    "attribute measured": "Kd",
    "unit string": "µM",
    "result number": 8
  }
]

* * *

# tgt: Syk (GST:Syk 6-242 fusion protein) (Homo sapiens, UniProt P43405)
# Construct: Recombinant GST:Syk 6-242 fusion protein [34] was immobilized on an ELISA plate; made in house
# assay overview: ELISA-based Antibody Displacement Assay (binding of scFv G4G11 to Syk)
# experimental conditions: 10 µM small molecule, 100 nM G4G11
# Description: To determine the ability of the compounds to affect the binding of scFv G4G11 to Syk in vitro, we tested them individually in an ELISA-based Antibody Displacement Assay (see Materials and Methods). […] The capacity of each compound to inhibit the binding of G4G11 to Syk was evaluated in comparison to the binding of G4G11 to Syk in PBS (final concentration of 100 nM) containing the appropriate concentrations of DMSO or DMF. […]
Lab note: anything with Antibody Inhibition below 40% is marked Criterion met; values at 40% or higher are marked Criterion not met.

[
  {
    "compound": "C=CCn1c(SCC(=O)Nc2cccc(OC)c2)nnc1C(C)NC(=O)c1ccccc1 (stereo not shown) [compound 7752193]",
    "class name": "Criterion met"
  },
  {
    "compound": "COc1cccc(C2C(=C(O)c3ccc(C)cc3)C(=O)C(=O)N2CCCN2CCOCC2)c1 (stereo not shown) [compound 6882059]",
    "class name": "Criterion not met"
  },
  {
    "compound": "CCOc1ccc(NC(=O)CC2C(=O)N(c3ccc(OC)cc3)C(=S)N2CCN2CCOCC2)cc1 (stereo not shown) [compound 7722914]",
    "class name": "Criterion met"
  },
  {
    "compound": "COc1ccc(OC)c(C2C(=C(O)c3ccc(C)cc3)C(=O)C(=O)N2Cc2cccnc2)c1 (stereo not shown) [compound 6652639]",
    "class name": "Criterion not met"
  },
  {
    "compound": "COc1ccc(C2C(=C(O)c3ccc(F)cc3)C(=O)C(=O)N2CCN2CCOCC2)cc1OC (stereo not shown) [compound 6654239]",
    "class name": "Criterion not met"
  },
  {
    "compound": "Cc1ccc(-c2nnc(Nc3cccc(O)c3)c3ccccc23)cc1S(=O)(=O)NC(C)(C)CO [compound 7238569]",
    "class name": "Criterion met"
  }
]

* * *

# assay overview: Solubility measurement in PBS by HPLC
# Assay type: physicochemical
# experimental conditions: aqueous buffer, kinetic from dmso stock, from 10 mM DMSO stock, 25°C
attribute measured: log10 of solubility at 5 min (log10 of the value in µM)

[
  {
    "compound": "COc1ccccc1C(=O)Nc1ccc(-c2nnc(SCC(=O)c3ccccc3)n2C)cc1",
    "log10 of solubility at 5 min": 0.65
  },
  {
    "compound": "C=CCn1c(CNC(=O)c2cccc(C)c2)nnc1SCC(=O)Nc1cccc(C(=O)OC(C)C)c1",
    "log10 of solubility at 5 min": 1.11
  },
  {
    "compound": "C=CCn1c(SCC(=O)Nc2cccc(OC)c2)nnc1C(C)NC(=O)c1ccccc1 (centres unmarked)",
    "log10 of solubility at 5 min": -0.52
  },
  {
    "compound": "CCOC(=O)c1ccc(NC(=O)CSc2nnc(-c3ccco3)c(-c3ccco3)n2)cc1",
    "log10 of solubility at 5 min": 1.55
  },
  {
    "compound": "COc1cc(-c2nnc(SCC(=O)Nc3ccc(Cl)cc3)n2CCc2ccccc2)cc(OC)c1OC",
    "log10 of solubility at 5 min": 0.78
  }
]

* * *

# tgt: Syk (GST:Syk 6-242 fusion protein) (Homo sapiens, UniProt P43405)
# Construct: Recombinant GST:Syk 6-242 fusion protein [34] was immobilized on an ELISA plate; made in house
# assay overview: ELISA-based Antibody Displacement Assay (binding of scFv G4G11 to Syk)
# experimental conditions: 10 µM small molecule, 100 nM G4G11
Examples of molecules with documented Antibody Inhibition follow.

[
  {
    "molecule": "COc1ccc(C2C(=C(O)c3ccc(F)cc3)C(=O)C(=O)N2CCN2CCOCC2)c(OC)c1 (stereo not drawn) [compound 6670673]",
    "tgt": "Syk (GST:Syk 6-242 fusion protein) (Homo sapiens, UniProt P43405)",
    "unit string": "%",
    "Antibody Inhibition": 50
  },
  {
    "molecule": "COc1ccc(C2C(C(=O)c3cccs3)=C(O)C(=O)N2CCN2CCOCC2)cc1OC (stereo not drawn) [compound 6677533]",
    "tgt": "Syk (GST:Syk 6-242 fusion protein) (Homo sapiens, UniProt P43405)",
    "unit string": "%",
    "Antibody Inhibition": 50
  },
  {
    "molecule": "COc1ccc(C2C(=C(O)c3ccc(C)cc3)C(=O)C(=O)N2CCN2CCOCC2)cc1 (stereo not drawn) [compound 6670747]",
    "tgt": "Syk (GST:Syk 6-242 fusion protein) (Homo sapiens, UniProt P43405)",
    "unit string": "%",
    "Antibody Inhibition": 50
  }
]

Every entry's value here was drawn from paper PMC3118801.
